Can you tell me pIC50 for the items I'm about to list?
System: HepG2
Assay: cells
Conditions: Homo sapiens, HepG2, 48 h
Description: Cytotoxicity against human HepG2 cells after 48 hrs by MTT assay
Numbers only, as −log10 of the molar value.

// known answers, use as guide
STRUCTURE AS SMILES | RESULT NUMBER
CCN(CC)CCNC(=O)c1c(C)[nH]c(/C=C2\C(=O)Nc3ccncc32)c1C | 4.79
Cc1[nH]c(/C=C2\C(=O)Nc3ccncc32)c(C)c1C(=O)NCCN(C)C | 5.07
CCc1cccc2c(/C=C3\C(=O)Nc4ccc(F)cc43)c[nH]c12 | 4.55

Query :: Find pIC50 (HepG2) for the entry CCN(CC)CCNC(=O)c1ccc(/C=C2\C(=O)Nc3ccc(F)cc32)[nH]c1=O.Cl
Result :: 5.30
